Reference source for all entries: paper PMC9469100

Target: ΔN(1–60)-PRMT8 (Homo sapiens, UniProt Q9NR22)
Sequence (Q9NR22 61-394, stated change not applied): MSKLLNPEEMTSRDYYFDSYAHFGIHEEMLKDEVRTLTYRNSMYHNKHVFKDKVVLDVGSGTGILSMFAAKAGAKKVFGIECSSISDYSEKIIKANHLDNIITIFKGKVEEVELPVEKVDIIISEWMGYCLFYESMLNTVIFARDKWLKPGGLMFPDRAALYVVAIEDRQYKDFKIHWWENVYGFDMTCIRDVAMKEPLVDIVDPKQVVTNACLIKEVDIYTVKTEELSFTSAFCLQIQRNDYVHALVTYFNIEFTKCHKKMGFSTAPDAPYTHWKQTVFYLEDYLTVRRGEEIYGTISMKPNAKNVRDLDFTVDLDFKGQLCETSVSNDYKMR
Assay: Radioisotope-based filter-binding (HotSpot) assay, PRMT8
Conditions: read-out: IC50 (μM) PRMT8, 5 μM histone H4, 1 μM 3H-SAM
Form field: IC50 (one value per entry).
EXPERIMENTAL ENDPOINT: IC50 (µM)

MOLECULE	MEASURE UNIT	REPORTED RESULT
COC(=O)c1cc(O)c2cc(NC(=O)NCCCCCNC(=N)NC[C@H]3O[C@@H](n4cnc5c(N)ncnc54)[C@H](O)[C@@H]3O)ccc2c1 [12c]	µM	5.87
COC(=O)c1cc(O)c2cc(NC(=O)NCCCCNC(=N)NC[C@H]3O[C@@H](n4cnc5c(N)ncnc54)[C@H](O)[C@@H]3O)ccc2c1 [12b]	µM	18.7
COC(=O)c1cc(O)c2cc(NC(=O)NCCCCNC(=N)NCC[C@H]3O[C@@H](n4cnc5c(N)ncnc54)[C@H](O)[C@@H]3O)ccc2c1 [12f]	µM	6
